The entries below come with measured protein stability index values attached.
B1: IMPA1 (parent)
chain: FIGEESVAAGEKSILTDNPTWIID

Variants of: B1
methodSummary: protein stability index of a GFP-peptide fusion (GPS, HEK-293T) (PSI 1-6); higher = more stable;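 further: lentivirally expressed fusions sorted by FACS into six bins by GFP to DsRed ratio, PSI derived from sequencing read proportions per bin multiplied by bin number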
assayConditions: c terminus: a fixed tail appended

| chainSequence | protein stability index |
| --- | --- |
| FIGEESVAAGEKSILTDNPTWIRD [I23R] | 3.9 |
| FIGEESVAAGEKSILTDNPTWIKD [I23K] | 3.64 |
| FIGEESVAAGEKSILTHNPTWIID [D17H] | 1.93 |
| RIGEESVAAGEKSILTDNPTWIID [F1R] | 4.38 |
| FIGEESVAAGEKSILTDNPTWIFD [I23F] | 2.81 |
| FWGEESVAAGEKSILTDNPTWIID [I2W] | 2.74 |
| FIGEESLAAGEKSILTDNPTWIID [V7L] | 2.25 |
| FIGEESVAAGEKSVLTDNPTWIID [I14V] | 2.23 |
| FIGEESVAAGEKMILTDNPTWIID [S13M] | 1.73 |
| FIGEESVAAGEKSILTWNPTWIID [D17W] | 2.23 |
| FIGEESVYAGEKSILTDNPTWIID [A8Y] | 2.39 |
| FIGEESVAAGEKSILTDNPRWIID [T20R] | 2.73 |
| FIGEESVAGGEKSILTDNPTWIID [A9G] | 2.09 |
| FIGEESVAAGEKSCLTDNPTWIID [I14C] | 1.68 |
| FIGEESVAAGEKSISTDNPTWIID [L15S] | 2.33 |
| FIREESVAAGEKSILTDNPTWIID [G3R] | 1.64 |
| FIGEESVAAGEKSILTDNPTSIID [W21S] | 4.41 |
| FSGEESVAAGEKSILTDNPTWIID [I2S] | 3.65 |
| FIGEESVAAGEKSILHDNPTWIID [T16H] | 2.38 |
| FIGEESVAAGEKSHLTDNPTWIID [I14H] | 2.44 |
| FIGEESVANGEKSILTDNPTWIID [A9N] | 2.03 |
| FIGEESVAAGEKSILTDSPTWIID [N18S] | 3.05 |
| FIGEESVDAGEKSILTDNPTWIID [A8D] | 2.72 |
| FIGEESVAAGEKSIHTDNPTWIID [L15H] | 2.22 |
| FIGEESVAAGEKSILTLNPTWIID [D17L] | 2.06 |
| FIGEESVAAGEKSILTDNPTWNID [I22N] | 3.12 |
| FYGEESVAAGEKSILTDNPTWIID [I2Y] | 3.4 |
| FIGEESVAAGEKSILTDNPTWIIA [D24A] | 1.71 |
| FIVEESVAAGEKSILTDNPTWIID [G3V] | 2.8 |
| FIGEESVAAGEKSICTDNPTWIID [L15C] | 2.3 |
| FIGEESVAMGEKSILTDNPTWIID [A9M] | 1.75 |
| FIGEESVAAGEKSILTDNTTWIID [P19T] | 2.83 |
| FIGEESVAAGCKSILTDNPTWIID [E11C] | 1.98 |
| FIGEESVAAGEKSYLTDNPTWIID [I14Y] | 1.91 |
| FIGEESVAAGEKSILTDMPTWIID [N18M] | 2.6 |
| FIGEESVAAGEKSILTDNPTWIHD [I23H] | 3.75 |
| FIGEESYAAGEKSILTDNPTWIID [V7Y] | 2.01 |
| FIGEESVAAQEKSILTDNPTWIID [G10Q] | 2.67 |
| FIGEESVARGEKSILTDNPTWIID [A9R] | 1.5 |
| FIGEESVAAGEKSILTDNPTWWID [I22W] | 2.33 |
| FIGEESVAAGEGSILTDNPTWIID [K12G] | 1.91 |
| FIGEESVAAGEKSILTDNQTWIID [P19Q] | 2.92 |
| FIGEESVAAGPKSILTDNPTWIID [E11P] | 1.53 |
| FIGELSVAAGEKSILTDNPTWIID [E5L] | 1.71 |
| FIGEESVAATEKSILTDNPTWIID [G10T] | 2.19 |
| FIGEQSVAAGEKSILTDNPTWIID [E5Q] | 2.38 |
| FITEESVAAGEKSILTDNPTWIID [G3T] | 1.92 |
| FIGEERVAAGEKSILTDNPTWIID [S6R] | 1.51 |
| FIGEESVAAGEISILTDNPTWIID [K12I] | 1.61 |
| FIGEESVAAGEKSILTDQPTWIID [N18Q] | 2.86 |
| FIGEESVAAAEKSILTDNPTWIID [G10A] | 2.18 |
| FIGEESVAAGEKSILYDNPTWIID [T16Y] | 1.64 |
| FIGEESVAAGEKSIGTDNPTWIID [L15G] | 2.77 |
| FIGEEVVAAGEKSILTDNPTWIID [S6V] | 1.7 |
| FIGEVSVAAGEKSILTDNPTWIID [E5V] | 3.68 |
| FIGEESVAAGEKSTLTDNPTWIID [I14T] | 2.6 |
| FIGEESVAAGEKSILSDNPTWIID [T16S] | 1.94 |
| FIQEESVAAGEKSILTDNPTWIID [G3Q] | 2.52 |
| FIGEESVAAGEKSILTTNPTWIID [D17T] | 1.63 |
| FIGEESVAAGKKSILTDNPTWIID [E11K] | 1.89 |
| FIGEESVAAGWKSILTDNPTWIID [E11W] | 1.37 |
| FIGEESVAAGEKSILTDNPTWQID [I22Q] | 2.75 |
| FIGEESVAAGEKSILTANPTWIID [D17A] | 1.54 |
| FINEESVAAGEKSILTDNPTWIID [G3N] | 1.99 |
| FIGEESVAAGEKSILTDNPTWHID [I22H] | 3.37 |
| FIGEESVAAGTKSILTDNPTWIID [E11T] | 2.3 |
| FIGEESVAAGEKSILTDNPLWIID [T20L] | 2.05 |
| FIGEESVAAGEKSILTMNPTWIID [D17M] | 2.13 |
| FIGEESVAAGEKSILTDNPTWMID [I22M] | 2.57 |
| IIGEESVAAGEKSILTDNPTWIID [F1I] | 3.98 |
| FIGEDSVAAGEKSILTDNPTWIID [E5D] | 1.89 |
| FIGEESVAAGEKSILTPNPTWIID [D17P] | 2 |
| FIGEESVAAGEKSILTDRPTWIID [N18R] | 2.31 |
| FIGEESVAAGEKSILTDNPQWIID [T20Q] | 3.09 |
| FIGEESVAAVEKSILTDNPTWIID [G10V] | 2.37 |
| FIGEESVAAGEKSILTDNPTWIQD [I23Q] | 3.39 |
| FIGEESVAAGEKSILTDNPTWIED [I23E] | 3.85 |
| FIGEESVAAGEKEILTDNPTWIID [S13E] | 2.32 |
| FIGEESVAAGEKSILTDNCTWIID [P19C] | 1.76 |
| FIGEESVAAGEKSILTDNPTWIIY [D24Y] | 2.33 |
| FIGEESVAAGEKSILTDNPFWIID [T20F] | 2.29 |
| FIGENSVAAGEKSILTDNPTWIID [E5N] | 1.53 |
| FIGEESVAADEKSILTDNPTWIID [G10D] | 2.48 |
| FIGEESVAAGEKSILTDHPTWIID [N18H] | 2.95 |
| FIGEESVAAGEKSIYTDNPTWIID [L15Y] | 2.05 |

Data origin, for the record: the supplement of paper PMC10567573
